# Tested on: PTEN mRNA
# measurement protocol: PTEN mRNA levels in liver, kidney and fat, Balb/c mice, single 8 μmol/kg i.p. (Example 6, Table 48)
# Assay type: in vivo, mouse
# condition parameters: 8 μmol/kg single i.p., 72 h, saline = 100
# From the text: Each dose group consisted of four animals. Shown in Table 46 are the sequences and motifs of the PTEN antisense compounds used in this study. Bolded residues indicate 2′-O-methoxyethyl moieties (2′-MOE) and italicized residues indicate Methyleneoxy BNA nucleotides. Each antisense compound comprises phosphorothioate linkages throughout. […]
Strand notation (5' to 3'): a small letter for the sugar, then the base; units joined by * are phosphorothioate-linked, units joined directly phosphodiester-linked; [ ] holds rarer units or linkages, { } end groups; capitals alone tell only the bases. e = 2'-O-(2-methoxyethyl) (MOE); l = locked nucleic acid (LNA); [5mC] = 5-methylcytosine; d = 2'-deoxy (DNA)
observed property: % PTEN mRNA levels in Kidney (%)
Response body: numeric value in %, unit text excluded.

Previously resolved entries follow.
[
  {
    "substance": "392061 (antisense l[5mC]*lT*dA*dG*dC*dC*dT*dC*dT*dG*dG*dA*lT*lT) [compound 392061]",
    "tested on": "PTEN mRNA",
    "unit info": "%",
    "% PTEN mRNA levels in Kidney": 61
  },
  {
    "substance": "391172 (antisense lC*lT*dA*dG*dC*dC*dT*dC*dT*dG*dG*dA*lT*lT*lT) [compound 391172]",
    "tested on": "PTEN mRNA",
    "unit info": "%",
    "% PTEN mRNA levels in Kidney": 63
  },
  {
    "substance": "141923 (antisense CCTTCCCTGAAGGTTCCTCC; sugars from the 5' end e5 d10 e5, all phosphorothioate, methylation of C not given here) [compound 141923]",
    "tested on": "PTEN mRNA",
    "unit info": "%",
    "% PTEN mRNA levels in Kidney": 133
  }
]

We next turn to a different substance, shown below.
% PTEN mRNA levels in Kidney lookup needed for 384073 (antisense lG*lC*lT*dA*dG*d[5mC]*d[5mC]*dT*d[5mC]*dT*dG*dG*dA*lT*lT*lT) [compound 384073] , thanks.
74
